MEASURED_TARGET: NLRP3 (Homo sapiens)
Construct: host or cells: PMA-differentiated THP-1 cells
Sequence (Q96P20 whole entry): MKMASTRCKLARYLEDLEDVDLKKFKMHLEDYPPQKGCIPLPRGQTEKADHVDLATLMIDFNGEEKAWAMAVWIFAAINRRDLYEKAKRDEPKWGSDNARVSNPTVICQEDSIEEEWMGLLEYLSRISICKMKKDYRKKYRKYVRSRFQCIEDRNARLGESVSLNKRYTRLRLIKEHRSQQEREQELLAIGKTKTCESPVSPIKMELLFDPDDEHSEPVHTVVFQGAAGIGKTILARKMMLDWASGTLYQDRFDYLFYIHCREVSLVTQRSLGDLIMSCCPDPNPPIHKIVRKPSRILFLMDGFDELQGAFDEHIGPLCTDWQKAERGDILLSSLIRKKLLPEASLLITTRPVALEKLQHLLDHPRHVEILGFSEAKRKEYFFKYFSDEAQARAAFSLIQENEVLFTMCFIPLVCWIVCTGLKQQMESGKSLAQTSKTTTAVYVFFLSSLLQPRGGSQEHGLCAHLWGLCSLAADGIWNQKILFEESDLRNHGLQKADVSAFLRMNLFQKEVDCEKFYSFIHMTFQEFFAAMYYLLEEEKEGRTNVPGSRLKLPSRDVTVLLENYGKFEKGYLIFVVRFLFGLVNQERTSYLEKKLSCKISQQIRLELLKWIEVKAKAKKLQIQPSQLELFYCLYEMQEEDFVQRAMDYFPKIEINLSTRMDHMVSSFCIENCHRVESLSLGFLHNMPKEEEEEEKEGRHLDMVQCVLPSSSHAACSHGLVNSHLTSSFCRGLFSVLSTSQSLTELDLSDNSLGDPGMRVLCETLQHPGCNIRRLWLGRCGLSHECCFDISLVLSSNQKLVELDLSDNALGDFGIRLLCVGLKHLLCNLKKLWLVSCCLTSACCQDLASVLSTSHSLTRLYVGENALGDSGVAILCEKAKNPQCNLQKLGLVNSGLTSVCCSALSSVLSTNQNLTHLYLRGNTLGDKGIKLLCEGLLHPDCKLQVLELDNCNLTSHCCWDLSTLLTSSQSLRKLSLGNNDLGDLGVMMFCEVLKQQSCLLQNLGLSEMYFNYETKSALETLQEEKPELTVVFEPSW
ASSAY_EXPLANATION: Measurement of IL-1β production in PMA-differentiated THP-1 cells (NLRP3 hIL1B EC50)
Format: cell-based
pEC50: −log10 of the molar value.
QUANTITY_MEASURED: pEC50

{"COMPOUND": "Nc1cc(NC2CC3(CC(O)C3)C2)c2ccc(-c3ccn[nH]3)cc2n1 (stereo not shown) [Example 21]", "QUANTITY_MEASURED": "pEC50", "NUMERIC_VALUE": 6.06}
{"COMPOUND": "Nc1nc(NC2CC23CC3)c2ccc(-c3cc[nH]n3)cc2n1 (single isomer, unassigned) [Example 36A]", "QUANTITY_MEASURED": "pEC50", "NUMERIC_VALUE": 7.07}

I. Nc1nc(NC2CC3(CC3)C2)c2ccc(-c3cc[nH]n3)cc2n1
II. Nc1nc(N2C[C@H]3C[C@@H]2CO3)c2ccc(-c3cc[nH]n3)cc2n1 (single isomer, unassigned)
So which one has the bigger pEC50 here, I or II ? Respond using the label that marks the chosen record.
I
